Assay: Selectivity ratio of EC50 for human adrenergic beta2 receptor to EC50 for adrenergic beta1 receptor
reported.property: Ratio EC50
Answer with a number only.

Task: Look up Ratio EC50 for this compound: O=c1[nH]c2c(O)ccc([C@@H](O)CNCC[S+]([O-])CCCNCCc3cccc(Cl)c3)c2s1 (stereo partly specified)
Result: 8

====

Assay: Selectivity ratio of IC50 for dopamine 2 receptor over EC50 for human adrenergic beta2 receptor
reported.property: Ratio IC50/EC50

Take a look at these entries with their results.
# molecule, reported.value
measured = [
    ("NC(=O)C(c1ccccc1)(c1ccccc1)[C@@H]1CCN(CCc2ccc3c(c2)CCO3)C1 [DARIFENACIN]", 1860),
    ("O=c1[nH]c2c(O)ccc([C@@H](O)CNCCCOCCNCCc3cccc(Cl)c3Cl)c2s1", 2510),
    ("O=c1[nH]c2c(O)ccc(CCNCCS(=O)(=O)CCCOCCc3ccccc3)c2s1 [SIBENADET]", 141),
    ("CN(CCOCCCNC[C@H](O)c1ccc(O)c2[nH]c(=O)sc12)CCc1ccccc1", 794),
    ("O=c1[nH]c2c(O)ccc([C@@H](O)CNCC[S+]([O-])CCCNCCc3cccc(Cl)c3)c2s1 (some centres not stated)", "> 560"),
]

Task: For O=c1[nH]c2c(O)ccc([C@@H](O)CNCCCOCCNCCc3cccc(Cl)c3)c2s1 , what is its reported Ratio IC50/EC50?
Result: > 14100

Task: Data request, read-out Ratio IC50/EC50, for O=c1[nH]c2c(O)ccc([C@@H](O)CNCCCSCCNCCc3cccc(Cl)c3Cl)c2s1
Result: 562

====

Assay: in vivo
Conditions: rat, plasma, iv
Description: Half life in iv dosed rat plasma
reported.property: half-life (h)
Express it in h; write the number only.

Task: For the compound O=c1[nH]c2c(O)ccc([C@@H](O)CNCCSCCCNCCc3ccccc3Cl)c2s1 , what half-life is on record?
Result: 15.9

====

Target: D(2) dopamine receptor (Homo sapiens)
Sequence (P14416 whole entry): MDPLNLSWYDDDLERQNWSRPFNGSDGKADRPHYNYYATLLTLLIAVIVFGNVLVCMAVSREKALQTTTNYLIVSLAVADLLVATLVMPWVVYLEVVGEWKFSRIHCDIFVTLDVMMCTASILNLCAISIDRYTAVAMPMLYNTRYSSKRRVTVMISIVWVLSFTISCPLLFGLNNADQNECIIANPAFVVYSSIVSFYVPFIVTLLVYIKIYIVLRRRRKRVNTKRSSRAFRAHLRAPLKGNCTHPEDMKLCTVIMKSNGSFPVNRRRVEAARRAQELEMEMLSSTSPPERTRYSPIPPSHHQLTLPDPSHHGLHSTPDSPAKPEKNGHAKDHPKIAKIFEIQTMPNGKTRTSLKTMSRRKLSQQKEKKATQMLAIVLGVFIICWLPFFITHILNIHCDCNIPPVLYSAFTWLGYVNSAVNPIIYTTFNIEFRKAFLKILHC
reported.property: pIC50
Quick note: pIC50 means taking -log10 of the concentration in moles per liter.

For orientation, consider the following solved cases.
# structure.notation, pIC50
rows = [
    ("CN(CCOCCCNC[C@H](O)c1ccc(O)c2[nH]c(=O)sc12)CCc1ccccc1", 5.60),
    ("O=c1[nH]c2c(O)ccc([C@@H](O)CNCCCSCCNCCc3cccc(Cl)c3Cl)c2s1", 6.00),
    ("O=c1[nH]c2c(O)ccc([C@@H](O)CNCCS(=O)(=O)CCCNCCc3cccc(Cl)c3)c2s1", 6.10),
    ("O=c1[nH]c2c(O)ccc([C@@H](O)CNCCCSCCNCCc3cccc(Cl)c3)c2s1", 5.80),
]

Now examine the next entry.
Task: Need pIC50 of O=c1[nH]c2c(O)ccc([C@@H](O)CNCCCSCCNCCc3ccccc3Cl)c2s1 , thanks.
Result: 6.00

====

Experiment: physchem
Details: octanol/phosphate buffer, pH 7.4
reported.property: logD
// no unit, no text: just the number

# compound, reported.property, reported.value
records = [
    ("O=c1[nH]c2c(O)ccc([C@@H](O)CNCCCOCCNCCc3cccc(Cl)c3Cl)c2s1", "logD", 0.6),
    ("O=c1[nH]c2c(O)ccc([C@@H](O)CNCCSCCCNCCc3ccccc3Cl)c2s1", "logD", 1),
    ("O=c1[nH]c2c(O)ccc([C@@H](O)CNCCOCCCNCCc3cccc(Cl)c3)c2s1", "logD", 0.8),
    ("O=c1[nH]c2c(O)ccc([C@@H](O)CNCCCSCCOCCc3ccccc3)c2s1", "logD", 2.3),
    ("O=c1[nH]c2c(O)ccc([C@@H](O)CNCCSCCCNCCc3cccc(C(F)(F)F)c3)c2s1", "logD", 1.2),
    ("O=c1[nH]c2c(O)ccc(CCNCCS(=O)(=O)CCCOCCc3ccccc3)c2s1", "logD", 2.6),
]

Task: Give the measured logD of O=c1[nH]c2c(O)ccc([C@@H](O)CNCCSCCCNCCc3ccccc3)c2s1 .
Result: 0.1

Task: Please look up its logD: O=c1[nH]c2c(O)ccc([C@@H](O)CNCCCOCCOCCc3cccc4ccccc34)c2s1
Result: 2.3

Task: Could you share which logD value was measured for CCOc1ccc(CCNCCCSCCNC[C@H](O)c2ccc(O)c3[nH]c(=O)sc23)cc1 ?
Result: 0.4

Task: // lookup logD for O=c1[nH]c2c(O)ccc([C@@H](O)CNCCSCCCOCCc3ccccc3)c2s1
Result: 2.5

Task: Can you share its logD? I mean this compound: O=c1[nH]c2c(O)ccc([C@@H](O)CNCCCOCCOCCc3ccccc3)c2s1
Result: 1.1

Task: Quick one: logD of O=c1[nH]c2c(O)ccc([C@@H](O)CNCCCSCCNCCc3cccc(Cl)c3)c2s1 ?
Result: 1.1

Task: Bench note: what logD did O=c1[nH]c2c(O)ccc([C@@H](O)CNCCCSCCOCCc3cccc4ccccc34)c2s1 show?
Result: 3.1
